- target_or_system: Hexokinase HKDC1 (Homo sapiens)
- test_protocol: HKDC1 hexokinase inhibitors, confirmation, biochemical, single concentration (AID 504710)
- experimental_context: recombinant HKDC1, G6PDH/diaphorase/resazurin fluorescence; at 20 µM
Active and inactive are the calls of the source.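 The calls were made as follows: active = inhibition reaching about 16% in any single replicate (limit read from the data); inactive = the rest.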
Possible outcomes: Y = active, N = inactive

[
  {
    "entry_smiles": "Cc1ccc(C(=O)c2c(C)oc3c2C(=O)C(=O)c2ccccc2-3)cc1",
    "class": "Y"
  },
  {
    "entry_smiles": "Cc1nonc1C(=O)N/N=C/c1ccc(O)cc1O",
    "class": "N"
  },
  {
    "entry_smiles": "CC(=O)N(C1=C(Cl)C(=O)c2ccccc2C1=O)c1ccc(C(=O)O)cc1",
    "class": "Y"
  },
  {
    "entry_smiles": "O=C(Nc1ccc(N2CCCC2)cc1)c1cccc(-c2cc3ccccc3oc2=O)c1",
    "class": "N"
  },
  {
    "entry_smiles": "Cc1cc2nnc(SCC(=O)Nc3cc(S(=O)(=O)N4CCOCC4)ccc3Cl)n2c2ccccc12",
    "class": "Y"
  },
  {
    "entry_smiles": "CCc1c(C)c(C#N)c2nc3ccccc3n2c1NC",
    "class": "N"
  }
]
